system: OVCAR-5 complex spheroids, viability; experiment: Anticancer human tumor OVCAR-5 cell line growth inhibition; conditions: second compound 3.16 µM; first compound 0.03 µM; stronger effect = lower value;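 also: spheroids exposed to agents for seven days; 100% = DMSO vehicle control wells viability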
Assay endpoint: viability, T/C (%)
Give just the numeric value; % need not be written.

{"Compound": "Nc1ccn(C2OC(CO)C(O)C2(F)F)c(=O)n1 (stereo unspecified) + NC1CC1c1ccc(-c2cccc(O)c2)cc1", "Test system": "OVCAR-5 complex spheroids, viability", "viability, T/C (%)": 27.9}

Challenge: # value lookup — system OVCAR-5 complex spheroids, viability, readout viability, T/C, item NS(=O)(=O)OCC1CC(n2ccc3c(NC4CCc5ccccc54)ncnc32)CC1O (stereo unspecified) + NC1CCC(NC2CC2c2ccccc2)CC1
Response given: 105

Challenge: # value lookup — system OVCAR-5 complex spheroids, viability, readout viability, T/C, item Nc1ncn(C2CC(O)C(CO)S2)c(=O)n1 (stereo unspecified) + NC1CC1c1ccc(-c2cccc(O)c2)cc1
Response given: 81.6

Challenge: # value lookup — system OVCAR-5 complex spheroids, viability, readout viability, T/C, item CCc1c2c(nc3ccc(O)cc13)-c1cc3c(c(=O)n1C2)COC(=O)[C@]3(O)CC + NC1CC1c1ccc(-c2cccc(O)c2)cc1
Response given: 4.14

Challenge: # value lookup — system OVCAR-5 complex spheroids, viability, readout viability, T/C, item COc1cc(C2c3cc4c(cc3C(OC3OC5COC(C)OC5C(O)C3O)C3COC(=O)C23)OCO4)cc(OC)c1O (stereo unspecified) + NC1CC1c1ccc(-c2cccc(O)c2)cc1
Response given: 85.2

Challenge: # value lookup — system OVCAR-5 complex spheroids, viability, readout viability, T/C, item Nc1ccccc1NC(=O)c1ccc(CNC(=O)OCc2cccnc2)cc1 + NC1CCC(NC2CC2c2ccccc2)CC1
Response given: 78.5

Challenge: # value lookup — system OVCAR-5 complex spheroids, viability, readout viability, T/C, item NS(=O)(=O)OCC1CC(n2ccc3c(NC4CCc5ccccc54)ncnc32)CC1O (stereo unspecified) + NC1CC1c1ccc(-c2cccc(O)c2)cc1
Response given: 126

Challenge: # value lookup — system OVCAR-5 complex spheroids, viability, readout viability, T/C, item Nc1ccccc1NC(=O)c1ccc(CNC(=O)OCc2cccnc2)cc1 + NC1CC1c1ccc(-c2cccc(O)c2)cc1
Response given: 68.6
